Parameter: IC50. Scope: all listed entries.
- Target System: BRD4-BD1 (Homo sapiens (Human))
- Method: BRD4 AlphaScreen assay, BRD4-BD1
- Stated Conditions: biotin-labeled tetra-acetylated histone H4 peptide, 75 min, room temperature, read-out: BRD4 BD-1 enzyme IC50
Where a name gives a salt, the structure may show the parent alone.

Cc1cc2c(cc(NC3CCN(C)CC3)c3nnc(C)n32)n1Cc1ccccc1 : ≤ 100 nM
Cc1nnc2ccc3c(cc(-c4ccn[nH]4)n3Cc3ccccc3)n12 : ≤ 100 nM
Cc1cc2c(cc(NCCCN(C)C)c3nnc(C)n32)n1Cc1ccccc1 : ≤ 100 nM
Cc1nnc2ccc3c(cc(C(=O)NCC4CNC4)n3Cc3cccc(Cl)c3)n12 [Example 128, bis(trifluoroacetate) Salt] : 100 to 1000 nM
Cc1nnc2ccc3c(cc(-c4ccn(CCN5CCOCC5)n4)n3Cc3ccccc3)n12 : ≤ 100 nM

[in] Please report the measured IC50 for Cc1nnc2ccc3c(cc(-c4c[nH]cn4)n3Cc3cccc(Cl)c3)n12 [Example 172, bis(trifluoroacetate) Salt]
[out] ≤ 100 nM

[in] Return the recorded IC50 value; entry: `COC1CN(Cc2cccc(Cn3c(C)cc4c3ccc3nnc(C)n34)c2)C1`
[out] 100 to 1000 nM

[in] Please list IC50 recorded for the molecule Cc1nnc2ccc3c(cc(C4CCNC4)n3Cc3ccccc3)n12 (racemic) [Example 186, bis(trifluoroacetate) Salt]
[out] 1000 to 10000 nM

[in] Output IC50 of `Cc1cc2c(ccc3nnc(C)n32)n1Cc1cccc(CN(C)CCO)c1`
[out] 100 to 1000 nM

[in] Identify the reported IC50 for the following entry. `Cc1cc2c(cc(NCCN3CCOCC3)c3nnc(C)n32)n1Cc1ccccc1`
[out] ≤ 100 nM

[in] Please report IC50 for the following molecule: `Cc1nnc2ccc3c(cc(C(=O)N[C@H](C)C(F)(F)F)n3Cc3ccccc3)n12`
[out] 100 to 1000 nM

[in] Identify IC50 associated with the molecule `CCN1CCC(Nc2cc3c(cc(C)n3Cc3ccccc3)n3c(C)nnc23)CC1`
[out] ≤ 100 nM

[in] Return IC50 (reported value) for this molecule: `Cc1cc2c(cc(NCCCN)c3nnc(C)n32)n1Cc1ccccc1`
[out] ≤ 100 nM

[in] Output IC50 of Cc1nnc2ccc3c(cc(-c4ncco4)n3Cc3cc(Cl)cc(CN4CCC(O)C4)c3)n12 (racemic)
[out] ≤ 100 nM

[in] Specify reported IC50 for the molecule shown: `Cc1cc2c(ccc3nnc(C)n32)n1Cc1ccc(CN(C)C)cc1`
[out] 100 to 1000 nM

[in] Look up and state reported IC50 for `CN[C@H]1CC[C@@H](Nc2cc3c(cc(C)n3Cc3ccccc3)n3c(C)nnc23)CC1`
[out] ≤ 100 nM

[in] Note down IC50 recorded for Cc1cc2c(ccc3nnc(C)n32)n1Cc1cccc(CN2CC(O)C2)c1 [Example 27, bis-trifluoroacetate Salt]
[out] ≤ 100 nM

[in] For the molecule `Cc1cc2c(cc(NC(N)=O)c3nnc(C)n32)n1Cc1ccccc1F` , give its reported IC50.
[out] ≤ 100 nM

[in] Fill in IC50 for record `Cc1cc2c(cc(Nc3ccncc3)c3nnc(C)n32)n1Cc1ccccc1`
[out] 100 to 1000 nM

###

- Target System: BRD4-BD2 (Homo sapiens (Human))
- Method: BRD4 AlphaScreen assay, BRD4-BD2
- Stated Conditions: biotin-labeled tetra-acetylated histone H4 peptide, 75 min, room temperature, read-out: BRD4 BD-2 enzyme IC50
pIC50: −log10 of the molar value.
# maps each entry to its pIC50

Cc1nnc2ccc3c(cc(-c4ccn(CCN5CCOCC5)n4)n3Cc3ccccc3)n12 : ≥ 7.00
Cc1cc2c(ccc3nnc(C)n32)n1Cc1ccc(F)cc1 : ≥ 7.00
Cc1cc2c(ccc3nnc(C)n32)n1Cc1ccncc1 : 6.00 to 7.00
Cc1cc2c(cc(N[C@H]3CCN(C(=O)OC(C)(C)C)C3)c3nnc(C)n32)n1Cc1ccccc1 : ≥ 7.00

[in] Please report pIC50 with BRD4-BD2 (Homo sapiens (Human)) for item `Cc1cc2c(cc(NCC3CCN(C(=O)OC(C)(C)C)CC3)c3nnc(C)n32)n1Cc1ccccc1` .
[out] ≥ 7.00

###

- Target System: BRD4-BD1 (Homo sapiens (Human))
- Method: BRD4 AlphaScreen assay, BRD4-BD1
- Stated Conditions: biotin-labeled tetra-acetylated histone H4 peptide, 75 min, room temperature, read-out: BRD4 BD-1 enzyme IC50
Measure Name: IC50

Cc1nnc2ccc3c(cc(-c4c[nH]cn4)n3Cc3ccccc3)n12 [Example 74] : ≤ 100 nM

[in] Determine its reported IC50: Cc1nnc2ccc3c(cc(-c4ccn(C)n4)n3Cc3ccccc3)n12 [Example 76]
[out] ≤ 100 nM

[in] Give the value of IC50 reported for the following: Cc1cc2c(cc(NC(=O)NC(C)C)c3nnc(C)n32)n1Cc1ccccc1 [Example 250]
[out] ≤ 100 nM

[in] Answer with the recorded IC50 for the compound listed here: CC(=O)N1CC(CC#N)(n2ccc(-c3cc4c(ccc5nnc(C)n54)n3Cc3cccc(Cl)c3)n2)C1 [Example 106]
[out] ≤ 100 nM

###

- Target System: BRD4-BD2 (Homo sapiens (Human))
- Method: BRD4 AlphaScreen assay, BRD4-BD2
- Type: binding
- Stated Conditions: biotin-labeled tetra-acetylated histone H4 peptide, 75 min, room temperature, read-out: BRD4 BD-2 enzyme IC50
Structures can show the parent of a compound that is named as a salt.
The molecules listed here are annotated with their IC50.

Here's what some known entries look like.
CCC(=O)Nc1cc2c(cc(C)n2Cc2ccccc2)n2c(C)nnc12 [Example 268] : ≤ 100 nM
Cc1cc2c(ccc3nnc(C)n32)n1Cc1ccccc1Cl [Example 8] : ≤ 100 nM

[in] Look up and state reported IC50 for Cc1nnc2ccc3c(cc(C(=O)N4CC(C#N)C4)n3Cc3ccccc3)n12 [Example 60]
[out] ≤ 100 nM

[in] For Cc1nnc2ccc3c(cc(-c4ccsc4)n3Cc3ccccc3)n12 [Example 72] , write its IC50.
[out] ≤ 100 nM

[in] Provide only the value of recorded IC50 for CNC(=O)c1cc2c(ccc3nnc(C)n32)n1Cc1cc(Cl)cc(CN2CCC(F)(F)C2)c1 [Example 134, (trifluoroacetate) Salt]
[out] ≤ 100 nM

[in] Note down IC50 recorded for Cc1cc2c(cc(NC(N)=O)c3nnc(C)n32)n1Cc1ccc(F)cc1F [Example 236]
[out] ≤ 100 nM

[in] Respond only with IC50 recorded for CCN1CC(n2ccc(-c3cc4c(ccc5nnc(C)n54)n3Cc3cccc(Cl)c3)n2)C1 [Example 160, bis(trifluoroacetate) Salt]
[out] ≤ 100 nM

[in] Return value of IC50 for input Cc1nnc2ccc3c(cc(C4CCNC4)n3Cc3ccccc3)n12 (racemic) [Example 186, bis(trifluoroacetate) Salt] , no commentary.
[out] 100 to 1000 nM

###

- Target System: BRD4-BD1 (Homo sapiens (Human), UniProt O60885)
- Method: BRD4 AlphaScreen assay, BRD4-BD1
- Stated Conditions: biotin-labeled tetra-acetylated histone H4 peptide, 75 min, room temperature, read-out: BRD4 BD-1 enzyme IC50
Measure Name: IC50

These recorded examples may help you get a feel for the data.
COc1cccc(Cn2c(C)cc3c2ccc2nnc(C)n23)c1 : 100 to 1000 nM
Cc1cc2c(cc(Nc3ncc[nH]3)c3nnc(C)n32)n1Cc1ccccc1 : ≤ 100 nM
Cc1nnc2ccc3c(cc(-c4nccs4)n3Cc3ccccc3)n12 : ≤ 100 nM
CCNC(=O)c1cc2c(ccc3nnc(C)n32)n1Cc1ccccc1 : ≤ 100 nM
Cc1nnc2ccc3c(cc(-c4ccn(CCC(N)=O)n4)n3Cc3ccccc3)n12 : ≤ 100 nM

[in] Tell me IC50 of `Cc1cc2c(cc(NS(C)(=O)=O)c3nnc(C)n32)n1Cc1ccccc1` when tested on BRD4-BD1 (Homo sapiens (Human), UniProt O60885).
[out] 100 to 1000 nM

[in] With BRD4-BD1 (Homo sapiens (Human), UniProt O60885) as the test system, provide measured IC50 for this molecule: `Cc1cc2c(ccc3nnc(C)n32)n1Cc1cccc(Cl)c1`
[out] ≤ 100 nM

[in] Give IC50 for this entry on BRD4-BD1 (Homo sapiens (Human), UniProt O60885): `Cc1cc2c(ccc3nnc(C)n32)n1Cc1cccc(CN2CCCC2)c1`
[out] ≤ 100 nM

###

- Target System: BRD4-BD1 (Homo sapiens (Human))
- Method: BRD4 AlphaScreen assay, BRD4-BD1
- Format: binding
- Stated Conditions: biotin-labeled tetra-acetylated histone H4 peptide, 75 min, room temperature, read-out: BRD4 BD-1 enzyme IC50
- Procedure: BRD4-BD1 and BRD4-BD2 assays were conducted in white 384-well polystyrene plate in a final volume of 20 μL for BD1 and 40 μL for BD2. Inhibitors were first serially diluted in DMSO and added to the plate wells before the addition of other reaction components. The final concentration of DMSO in the assay was 1.25% (BD1) and 0.83% (BD2). […] After plate sealing, the plate was incubated in the dark at room temperature for 75 min. before reading on a PHERAstar FS plate reader (BMG Labtech). […]
pIC50: −log10 of the molar value. Where a name gives a salt, the structure may show the parent alone.
Listing of recorded pIC50 by entry.

// solved cases for pIC50 follow
Cc1cc2c(cc(NC(=O)OC(C)(C)C)c3nnc(C)n32)n1Cc1ccccc1 [Example 248] : 6.00 to 7.00
Cc1cc2c(ccc3nnc(C)n32)n1Cc1cccc(CN2CCOCC2)c1 [Example 38] : 6.00 to 7.00
CNC(=O)c1cc2c(ccc3nnc(C)n32)n1Cc1cccc(C(F)(F)F)c1 [Example 136, Trifluoroacetate Salt] : ≥ 7.00

[in] Report measured pIC50; entry is Cc1ccccc1Cn1c(C)cc2c1ccc1nnc(C)n12 [Example 17]
[out] ≥ 7.00

[in] Check the records and state pIC50 for Cc1nnc2ccc3c(cc(C(=O)NCCO)n3Cc3cccc(Cl)c3)n12 [Example 117, Trifluoroacetate Salt]
[out] ≥ 7.00

[in] Provide only the value of recorded pIC50 for CNC(=O)c1cc2c(ccc3nnc(C)n32)n1Cc1ccccc1 [Example 82]
[out] ≥ 7.00

[in] Return the recorded pIC50 value; entry: CCNC(=O)c1cccc(Cn2c(C)cc3c2ccc2nnc(C)n23)c1 [Example 33, Trifluoroacetate Salt]
[out] 6.00 to 7.00

[in] // fetch pIC50 given entry Cc1cc2c(cc(NC3CCN(C)CC3)c3nnc(C)n32)n1Cc1cccnc1 [Example 154]
[out] ≥ 7.00

[in] Please report pIC50 for the following molecule: Cc1cc2c(cc(N[C@@H]3CCN(C(=O)OC(C)(C)C)C3)c3nnc(C)n32)n1Cc1ccccc1 [Example 149]
[out] 6.00 to 7.00

[in] Tell us which pIC50 value is on record for Cc1cc2c(ccc3nnc(C)n32)n1Cc1cccc(CN2CCN(C)CC2)c1 [Example 47]
[out] 6.00 to 7.00
